tested on: K562; assay: NCI tumour cell line growth inhibition, 48 h
Calls of active or inactive are those of the source. Cut-off read from the data, not from the text of the source: active = GI50 up to about 1.1 µM and inactive = higher.
Outcome codes: YES = active, NO = inactive

molecule | study target | classification
CCOC(=O)c1c(CN2CCCC2)n(-c2ccccc2)c2cc(Br)c(OC)cc12 | K562 | NO
O=c1c2ccccc2nc2n1CCc1c-2[nH]c2cc3c(cc12)OCO3 | K562 | NO
COC(=O)C1C(O)C(C)C(O)C(C)(O)C=C(C)C2=C3C(=C(C)C(=O)c4c(O)c(c(C)c(OC(C)=O)c43)NC(=O)C(C)=C/C=C\C(C)(O)C(O)C(C)C1O)OCO2 (stereo not given) | K562 | NO
O=C(CCCCCCCCC(=O)OCC1OC(n2cnc3c(=O)[nH]cnc32)C(O)C1O)OCC1OC(n2cnc3c(=O)[nH]cnc32)C(O)C1O (stereo not given) | K562 | NO
Cc1ccccc1C1CC(c2ccccc2)=NO1 (stereo not given) | K562 | NO
CC(C)(C)NC(=O)/C(=C\Sc1ccccc1)c1ccccc1 | K562 | NO
Cc1cc(=O)oc2c(C)c3oc(CBr)cc3cc12 | K562 | NO
CCOc1c(OC)cc(-c2nc3n(n2)C(=O)C(CC)S3)cc1OC (stereo not given) | K562 | NO
CC(=O)Oc1ccc2c3c1[C@H]1O[C@H]1c1cccc(c1-3)[C@@H]1O[C@H]21 | K562 | NO
Cc1cnc2[nH]c(-c3cccc(F)c3)cc(=O)c2c1 | K562 | YES
CN(C)CCn1c2c3ccccc3ccc2c2oc(=O)c3ccccc3c21 | K562 | NO
COc1cc2c(cc1OC)CCc1cc(OC)c(OC)cc1CC2 | K562 | NO
c1ccc2c(c1)Cc1c(Cc3csc4ccccc34)ccc3cccc-2c13 | K562 | NO
CC1(C)N=c2c(ncn2CCCO)=C(C(N)=O)N1 | K562 | NO
COc1cc(C(=O)NO)ccc1O | K562 | NO
CC(C)CC(CNC(Cc1ccc(Cl)cc1)C(N)=O)NC(=O)C(Cc1c[nH]cn1)NC(=O)CNC(=O)C(NC(=O)C(C)NC(=O)C(Cc1c[nH]c2ccccc12)NC(=O)C(CCC(=O)O)NC(=O)C(N)Cc1ccccc1)C(C)C (stereo not given) | K562 | NO
CCCCn1cnc2c(SC)ncnc21 | K562 | NO
COC(=O)C(Cc1ccc2c(c1)OCO2)(NC(=O)c1ccccc1)P(=O)(OC)OC (stereo not given) | K562 | NO
O=c1c2ccccc2[nH]c(=S)n1-c1ccc(Br)cc1 | K562 | NO
CCN(C(=S)N[C@H](C(=O)N[C@@H](C)C(=O)OC)C(C)C)c1ccccc1 | K562 | NO
